// IC50 lookup, one value per entry
SYSTEM: CyclinA2/CDK2 (Homo sapiens, UniProt P20248)
Construct: purchased CRELUX Protein Services
METHOD_SUMMARY: Fluorescence Polarization (FP) competitive binding assay, Cyclin A2/Cdk2;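 note: plates equilibrated two hours at room temperature before polarization reading, IC50 fitted from eight-concentration compound titration curves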
STUDY_CONDITIONS: 8 nM Cyclin A2/Cdk2, 2 nM FAM probe; average of 2-3 independent experiments; read-out: Cyclin A FP IC50
*1 amine or outer side, *2 acyl side, *3 side chain or, on linkers, in order; H or OH if unused. Where a SMILES comes first, the peptide text is derived from it. Bridges are numbered along the chain shown (N, C = ends). [ ]: non-standard residue; d: D form. The star is where a group is joined. X69 = CCOC(=O)N1CC=C(c2ccc(Cl)cc2C[C@@H](C(=O)[*:2])N(C)[*:1])CC1; X116 = CN([C@@H](Cc1cc(Cl)ccc1-c1cnc2c(c1)ncn2C)C(=O)[*:2])[*:1]; NMehhhLys(Me) = CN([C@@H](CCCCCCCN(C)[*:3])C(=O)[*:2])[*:1]; cBuCO(3,3-F2-1-CF3) = O=C(C1(C(F)(F)F)CC(F)(F)C1)*; Pro(trans-4-F) = O=C(O)[C@@H]1C[C@@H](F)CN1; Gly(cPr) = N[C@H](C(=O)O)C1CC1

MOLECULE: CCOC(=O)N1CC=C(c2ccc(Cl)cc2C[C@H]2C(=O)N(C)CCCCCCC[C@H](N(C)C(=O)[C@@H](NC(=O)[C@@H]3C[C@@H](F)CN3C(=O)C3(C(F)(F)F)CC(F)(F)C3)C3CC3)C(=O)N[C@@H](CC(C)C)C(=O)N2C)CC1 [Example 145] ({cBuCO(3,3-F2-1-CF3)}-[Pro(trans-4-F)][Gly(cPr)][NMehhhLys(Me)]L[X69]; lactam 3-C)
IC50 / nM: 20
//
MOLECULE: CC(C)C[C@@H]1NC(=O)[C@@H](N(C)C(=O)[C@@H](NC(=O)[C@@H]2C[C@@H](F)CN2C(=O)C2(C(F)(F)F)CC(F)(F)C2)C2CC2)CC=CCCCCNC(=O)[C@H](Cc2cc(Cl)ccc2-c2cnn(C3COC3)c2)N(C)C1=O [Example 27]
IC50 / nM: 90
//
MOLECULE: CC(C)C[C@@H]1NC(=O)[C@@H](N(C)C(=O)[C@@H](NC(=O)[C@@H]2C[C@@H](F)CN2C(=O)C2(C(F)(F)F)CC(F)(F)C2)C2CC2)CC=CCCCCN(C)C(=O)[C@H](Cc2cc(F)ccc2C2=CCCC2)N(C)C1=O [Example 46]
IC50 / nM: 20
//
MOLECULE: CC(C)C[C@@H]1NC(=O)[C@@H](N(C)C(=O)[C@@H](NC(=O)[C@@H]2C[C@@H](F)CN2C(=O)C2(C(F)(F)F)CC(F)(F)C2)C2CC2)CCCCCCCN(C)C(=O)[C@H](Cc2cc(Cl)ccc2-c2cnc3c(c2)ncn3C)N(C)C1=O [Example 177] ({cBuCO(3,3-F2-1-CF3)}-[Pro(trans-4-F)][Gly(cPr)][NMehhhLys(Me)]L[X116]; lactam 3-C)
IC50 / nM: 20
